Every entry's value here was drawn from ChEMBL document CHEMBL5212743.

target: Sigma non-opioid intracellular receptor 1 (Homo sapiens); experiment: Selectivity interaction (GPCR panel (PDSP screen)) EUB0000103c SIGMAR1
Sequence (Q99720 whole entry): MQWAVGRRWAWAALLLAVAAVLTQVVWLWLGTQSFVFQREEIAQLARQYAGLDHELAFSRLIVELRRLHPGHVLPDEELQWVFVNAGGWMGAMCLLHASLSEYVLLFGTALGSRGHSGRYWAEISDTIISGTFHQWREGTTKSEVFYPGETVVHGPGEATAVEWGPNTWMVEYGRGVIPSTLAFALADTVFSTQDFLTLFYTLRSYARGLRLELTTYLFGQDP
Quantity Kind: pKi
The value called pKi is obtained by taking minus log10 of the concentration in mol/L.

Assay Sigma non-opioid intracellular receptor 1 (Homo sapiens), sample CNCCN1CCC(OCc2ccccc2)CC1 , pKi read: 7.27

###

target: Protein ENL (Homo sapiens, UniProt Q03111); experiment: Selectivity interaction (ITC) EUB0000283b MLLT1
Quantity Kind: pKd
The value called pKd is obtained by taking minus log10 of the concentration in mol/L.

Value of measured pKd for the entry C[C@H]1CCCN1Cc1nc2cc(NC(=O)c3ccc4cnccc4c3)ccc2[nH]1 : 6.96

###

Target: N-lysine methyltransferase KMT5A (Homo sapiens, UniProt Q9NQR1)
Sequence (Q9NQR1 whole entry): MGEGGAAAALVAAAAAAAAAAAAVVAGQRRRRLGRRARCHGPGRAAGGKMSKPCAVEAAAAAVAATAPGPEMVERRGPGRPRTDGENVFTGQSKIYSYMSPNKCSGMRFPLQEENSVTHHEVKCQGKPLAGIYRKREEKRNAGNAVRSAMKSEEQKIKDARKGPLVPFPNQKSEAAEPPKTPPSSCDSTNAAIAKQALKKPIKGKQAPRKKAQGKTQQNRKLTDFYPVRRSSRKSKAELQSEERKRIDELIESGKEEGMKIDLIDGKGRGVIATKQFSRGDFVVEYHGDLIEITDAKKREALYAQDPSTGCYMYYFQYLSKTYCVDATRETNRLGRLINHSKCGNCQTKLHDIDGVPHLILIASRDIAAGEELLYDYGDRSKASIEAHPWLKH
Assay: Selectivity interaction (Methyltransferase panel (radioactive enzyme assay)) EUB0000216b SETD8
pIC50: −log10 of the molar value.
Quantity Kind: pIC50

Assay N-lysine methyltransferase KMT5A (Homo sapiens, UniProt Q9NQR1), sample CC(C)N(CCCNC(=O)Nc1ccc(C(C)(C)C)cc1)C[C@H]1O[C@@H](n2cc(Br)c3c(N)ncnc32)[C@H](O)[C@@H]1O , pIC50 read: < 4.00

###

Target: UniProtKB P30542
Sequence (P30542 whole entry): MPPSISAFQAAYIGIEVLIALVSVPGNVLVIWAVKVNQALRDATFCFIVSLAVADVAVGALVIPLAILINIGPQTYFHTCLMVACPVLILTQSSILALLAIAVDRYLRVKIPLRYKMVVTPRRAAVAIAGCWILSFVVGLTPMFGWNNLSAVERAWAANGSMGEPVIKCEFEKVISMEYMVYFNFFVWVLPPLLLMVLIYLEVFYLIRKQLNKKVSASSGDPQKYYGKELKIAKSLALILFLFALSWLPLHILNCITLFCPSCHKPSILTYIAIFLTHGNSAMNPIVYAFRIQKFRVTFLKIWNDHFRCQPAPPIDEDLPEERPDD
Assay: Selectivity interaction (CEREP panel (GPCRS, ion channels, transporters)) EUB0000193b ADORA1
Quantity Kind: Ki (nM)
Please state the figure in nM; there is no need to write the unit.

Assay UniProtKB P30542, sample Clc1cc2c(NC3CCCC3)nnc(-c3ccncc3)c2cc1Cl , Ki read: 12

###

target: Gamma-aminobutyric acid receptor subunit alpha-1 (Homo sapiens); experiment: Selectivity interaction (GPCR panel (PDSP screen)) EUB0000296b GABRA1
Quantity Kind: pKi
The value called pKi is obtained by taking minus log10 of the concentration in mol/L.

Value of measured pKi for the entry CC(=O)Nc1c(C(C)=O)c(=O)n(C)c2nc(-c3ccc(Cl)cc3Cl)c(-c3ccc(Cl)cc3)cc12 [NAPHTHYRIDINONE] : 7.09

###

biological target: Non-receptor tyrosine-protein kinase TNK1 (Homo sapiens, UniProt Q13470); assay: Selectivity interaction (Enzymatic assay) EUB0000609a TNK1
Sequence (Q13470 whole entry): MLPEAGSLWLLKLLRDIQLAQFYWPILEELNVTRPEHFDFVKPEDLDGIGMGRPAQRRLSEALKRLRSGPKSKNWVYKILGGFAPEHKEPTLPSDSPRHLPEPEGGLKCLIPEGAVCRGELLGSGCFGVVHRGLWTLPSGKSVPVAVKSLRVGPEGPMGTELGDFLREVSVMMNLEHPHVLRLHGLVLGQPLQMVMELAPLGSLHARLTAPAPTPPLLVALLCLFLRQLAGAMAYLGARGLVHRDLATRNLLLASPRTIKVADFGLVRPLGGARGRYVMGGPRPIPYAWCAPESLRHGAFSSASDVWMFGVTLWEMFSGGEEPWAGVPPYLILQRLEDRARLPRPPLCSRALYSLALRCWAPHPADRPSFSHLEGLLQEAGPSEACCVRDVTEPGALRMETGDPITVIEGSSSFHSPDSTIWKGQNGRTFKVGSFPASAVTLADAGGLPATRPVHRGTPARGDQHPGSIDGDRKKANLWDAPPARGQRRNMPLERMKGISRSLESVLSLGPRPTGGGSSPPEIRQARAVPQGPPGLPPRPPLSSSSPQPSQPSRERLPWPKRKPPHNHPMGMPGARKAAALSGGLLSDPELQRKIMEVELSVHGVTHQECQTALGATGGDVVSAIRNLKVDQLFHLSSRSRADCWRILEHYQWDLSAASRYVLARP
Quantity Kind: pIC50
The value called pIC50 is obtained by taking minus log10 of the concentration in mol/L.

Value of measured pIC50 for the entry COc1cc(N2CCC(O)CC2)ccc1Nc1cc(Nc2ccccc2S(=O)(=O)C(C)C)c2cc[nH]c2n1 : 5.59

###

target: Leukocyte tyrosine kinase receptor (Homo sapiens, UniProt P29376); assay: Selectivity interaction (Z’-LYTE assay (SelectScreen Invitrogen)) EUB0000690a LTK
Quantity Kind: Ki (nM)
Please state the figure in nM; there is no need to write the unit.

Value of measured Ki for the entry C[C@H]1Oc2cc(cnc2N)-c2c(nn(C)c2C#N)CN(C)C(=O)c2ccc(F)cc21 [LORLATINIB] : 2.7

###

molecular target: MAP kinase-activated protein kinase 2 (Homo sapiens, UniProt P49137); test: Selectivity interaction (Enzyme panel (Invitrogen)) EUB0000730a MAPKAPK2
Sequence (P49137 whole entry): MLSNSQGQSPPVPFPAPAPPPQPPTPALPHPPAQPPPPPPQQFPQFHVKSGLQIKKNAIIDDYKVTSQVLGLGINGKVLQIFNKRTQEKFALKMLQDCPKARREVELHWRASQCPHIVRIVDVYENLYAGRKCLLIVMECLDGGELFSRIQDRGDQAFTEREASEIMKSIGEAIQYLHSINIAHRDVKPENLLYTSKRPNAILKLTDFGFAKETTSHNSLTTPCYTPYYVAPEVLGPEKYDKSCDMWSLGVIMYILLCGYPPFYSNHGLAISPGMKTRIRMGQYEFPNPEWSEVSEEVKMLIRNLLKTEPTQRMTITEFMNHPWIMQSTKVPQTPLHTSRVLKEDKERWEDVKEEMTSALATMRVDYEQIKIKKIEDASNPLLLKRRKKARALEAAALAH
Quantity Kind: IC50 (nM)
Please state the figure in nM; there is no need to write the unit.

Value of measured IC50 for the entry CCOC(=O)c1cc2cc(-c3cc(C(=O)NCc4ccc(C(=O)O)cc4)nn3C)ccc2[nH]1 : 1100

###

molecular target: Muscarinic acetylcholine receptor M2 (Homo sapiens, UniProt P08172); test: Selectivity interaction (GloSensor assay) EUB0000234b CHRM2
Quantity Kind: EC50

Value of measured EC50 for the entry COc1cc(OC)cc(-c2noc(N3CCN(C)C4(CCN(c5ccnc(C)c5)CC4)C3)n2)c1 : > 10 µM

###

target: 5-hydroxytryptamine receptor 2B (Homo sapiens, UniProt P41595); test: Selectivity interaction (GPCR panel (PDSP screen)) EUB0000540a HTR2B
Sequence (P41595 whole entry): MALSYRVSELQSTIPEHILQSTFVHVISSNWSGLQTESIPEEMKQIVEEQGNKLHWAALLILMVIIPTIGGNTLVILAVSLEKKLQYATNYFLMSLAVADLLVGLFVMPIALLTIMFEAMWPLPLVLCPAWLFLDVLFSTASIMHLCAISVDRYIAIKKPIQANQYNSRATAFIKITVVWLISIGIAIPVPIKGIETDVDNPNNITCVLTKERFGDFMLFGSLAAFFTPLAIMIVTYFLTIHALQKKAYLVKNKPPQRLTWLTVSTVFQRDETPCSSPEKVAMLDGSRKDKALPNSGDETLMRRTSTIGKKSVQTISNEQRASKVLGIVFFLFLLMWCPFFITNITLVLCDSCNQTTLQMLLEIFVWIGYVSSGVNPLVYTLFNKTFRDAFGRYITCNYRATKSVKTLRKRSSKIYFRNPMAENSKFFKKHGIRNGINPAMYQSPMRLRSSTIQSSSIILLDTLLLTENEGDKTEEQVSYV
Quantity Kind: pKi
The value called pKi is obtained by taking minus log10 of the concentration in mol/L.

Assay 5-hydroxytryptamine receptor 2B (Homo sapiens, UniProt P41595), sample O=C(Nc1cccnn1)N1CC(C/C=C/c2cncc(Oc3ccc(C(F)(F)F)cn3)n2)C1 , pKi read: 5.87

###

target: UniProt:Q96KQ7; assay: Selectivity interaction (Methyltransferase panel) EUB0000196bCl EHMT2
Sequence (Q96KQ7 whole entry): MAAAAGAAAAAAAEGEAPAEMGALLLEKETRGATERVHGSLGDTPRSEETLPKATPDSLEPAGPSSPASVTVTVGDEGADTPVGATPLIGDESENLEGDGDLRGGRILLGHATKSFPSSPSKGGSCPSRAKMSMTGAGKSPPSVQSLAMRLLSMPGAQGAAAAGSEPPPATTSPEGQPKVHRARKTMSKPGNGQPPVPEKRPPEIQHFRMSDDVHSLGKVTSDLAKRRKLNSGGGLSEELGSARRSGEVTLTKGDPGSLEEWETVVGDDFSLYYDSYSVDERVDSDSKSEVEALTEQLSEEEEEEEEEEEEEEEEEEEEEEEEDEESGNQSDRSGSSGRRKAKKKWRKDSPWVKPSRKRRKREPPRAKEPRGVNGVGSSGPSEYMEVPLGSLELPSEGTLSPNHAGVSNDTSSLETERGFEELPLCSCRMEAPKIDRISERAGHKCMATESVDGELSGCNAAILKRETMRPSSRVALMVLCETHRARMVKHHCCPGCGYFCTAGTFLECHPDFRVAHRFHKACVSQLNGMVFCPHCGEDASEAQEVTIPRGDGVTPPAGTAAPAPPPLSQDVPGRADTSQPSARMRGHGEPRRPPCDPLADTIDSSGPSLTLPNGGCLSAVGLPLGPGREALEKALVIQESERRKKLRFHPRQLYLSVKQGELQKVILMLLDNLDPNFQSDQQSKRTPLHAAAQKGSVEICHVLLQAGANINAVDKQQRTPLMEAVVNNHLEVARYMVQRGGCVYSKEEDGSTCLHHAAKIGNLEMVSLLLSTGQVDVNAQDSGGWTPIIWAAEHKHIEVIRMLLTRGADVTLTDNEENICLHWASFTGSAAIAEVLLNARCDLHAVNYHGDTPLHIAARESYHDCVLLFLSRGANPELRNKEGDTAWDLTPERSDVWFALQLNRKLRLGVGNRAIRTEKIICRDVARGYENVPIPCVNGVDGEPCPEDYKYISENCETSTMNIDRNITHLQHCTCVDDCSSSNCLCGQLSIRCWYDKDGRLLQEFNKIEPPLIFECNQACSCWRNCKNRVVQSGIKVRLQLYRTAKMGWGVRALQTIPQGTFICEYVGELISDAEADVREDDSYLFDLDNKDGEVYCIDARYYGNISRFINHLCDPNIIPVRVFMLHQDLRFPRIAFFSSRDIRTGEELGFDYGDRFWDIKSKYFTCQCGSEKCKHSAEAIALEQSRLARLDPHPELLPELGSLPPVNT
Quantity Kind: EC50

Value of measured EC50 for the entry O=C([C@@H](Cc1cccc(C(F)(F)F)c1)NS(=O)(=O)c1cc(F)c2c(c1)CCNC2)N1CCCC1 : > 10 µM

###

target: Tyrosine-protein kinase JAK2 (Homo sapiens, UniProt O60674); assay: Selectivity interaction (Z’-LYTE assay (SelectScreen Invitrogen)) EUB0000690a JAK2
Sequence (O60674 whole entry): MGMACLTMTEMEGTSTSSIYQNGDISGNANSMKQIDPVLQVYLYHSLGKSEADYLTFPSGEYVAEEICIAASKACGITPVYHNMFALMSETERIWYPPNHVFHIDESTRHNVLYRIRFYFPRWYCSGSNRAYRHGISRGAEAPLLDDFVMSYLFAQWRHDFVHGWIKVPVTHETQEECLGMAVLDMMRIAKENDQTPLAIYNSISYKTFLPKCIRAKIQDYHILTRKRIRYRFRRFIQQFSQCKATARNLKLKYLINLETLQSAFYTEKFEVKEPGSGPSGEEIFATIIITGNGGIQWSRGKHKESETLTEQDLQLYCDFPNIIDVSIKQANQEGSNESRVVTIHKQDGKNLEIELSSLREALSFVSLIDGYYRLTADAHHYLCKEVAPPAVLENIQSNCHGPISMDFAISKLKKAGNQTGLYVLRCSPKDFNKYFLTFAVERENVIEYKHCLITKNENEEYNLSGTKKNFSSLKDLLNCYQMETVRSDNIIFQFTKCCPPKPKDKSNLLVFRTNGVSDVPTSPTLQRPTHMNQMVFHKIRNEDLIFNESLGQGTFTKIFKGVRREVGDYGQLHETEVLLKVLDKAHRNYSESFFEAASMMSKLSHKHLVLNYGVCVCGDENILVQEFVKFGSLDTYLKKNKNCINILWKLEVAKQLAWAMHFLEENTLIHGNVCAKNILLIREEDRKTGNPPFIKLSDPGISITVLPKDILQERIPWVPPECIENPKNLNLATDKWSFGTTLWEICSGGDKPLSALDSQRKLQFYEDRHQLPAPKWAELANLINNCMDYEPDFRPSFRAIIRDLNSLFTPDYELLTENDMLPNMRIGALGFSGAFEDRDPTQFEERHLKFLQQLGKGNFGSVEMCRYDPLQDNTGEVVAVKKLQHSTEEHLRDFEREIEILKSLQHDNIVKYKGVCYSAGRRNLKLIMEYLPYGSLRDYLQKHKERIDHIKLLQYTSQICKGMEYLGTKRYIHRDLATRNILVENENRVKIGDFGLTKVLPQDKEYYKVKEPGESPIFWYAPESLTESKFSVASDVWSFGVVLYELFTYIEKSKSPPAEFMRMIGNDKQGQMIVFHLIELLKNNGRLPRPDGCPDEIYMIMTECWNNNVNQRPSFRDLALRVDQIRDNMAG
Quantity Kind: pKi
The value called pKi is obtained by taking minus log10 of the concentration in mol/L.

Value of measured pKi for the entry C[C@H]1Oc2cc(cnc2N)-c2c(nn(C)c2C#N)CN(C)C(=O)c2ccc(F)cc21 : 6.28

###

target: Tyrosine-protein kinase ABL1 (Homo sapiens, UniProt P00519, T315I); assay: Selectivity interaction (KinomeScan (DiscoverX, competition-binding assay)) EUB0000178b ABL1
Quantity Kind: pKd
The value called pKd is obtained by taking minus log10 of the concentration in mol/L.

Value of measured pKd for the entry CN1C(=O)c2sccc2N(C)c2nc(Nc3ccc(S(N)(=O)=O)cc3)ncc21 : 7.85

###

biological target: Mitogen-activated protein kinase 9 (Homo sapiens); assay: Selectivity interaction (ActivX KiNative profiling assay (in HCT-116 cell line (CRL-1619))) EUB0000642a MAPK9
Sequence (P45984 whole entry): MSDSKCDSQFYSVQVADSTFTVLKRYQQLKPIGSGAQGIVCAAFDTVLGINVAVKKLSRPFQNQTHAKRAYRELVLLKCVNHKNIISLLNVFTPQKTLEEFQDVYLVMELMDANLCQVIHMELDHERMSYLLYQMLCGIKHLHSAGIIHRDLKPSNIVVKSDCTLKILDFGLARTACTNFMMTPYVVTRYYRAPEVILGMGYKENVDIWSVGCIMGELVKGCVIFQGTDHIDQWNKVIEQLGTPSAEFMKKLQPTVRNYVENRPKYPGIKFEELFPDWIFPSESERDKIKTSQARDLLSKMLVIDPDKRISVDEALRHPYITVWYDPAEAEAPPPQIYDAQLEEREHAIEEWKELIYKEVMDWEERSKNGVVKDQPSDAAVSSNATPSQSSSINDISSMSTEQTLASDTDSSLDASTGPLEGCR
Quantity Kind: IC50

Value of measured IC50 for the entry CNC(=O)c1ccc(Nc2nc(OC3CCCC3)c3c(-c4ccc5nc(C)oc5c4)c[nH]c3n2)c(OC)c1 : 680 nM

###

target: Dipeptidyl peptidase 4 (Homo sapiens, UniProt P27487); assay: Selectivity interaction (Serine protease panel) EUB0000735a DPP4
Quantity Kind: IC50

Value of measured IC50 for the entry CC(=O)C1=C(C)N(c2cccc(C(F)(F)F)c2)C(=O)N[C@@H]1c1ccc(C#N)nc1 : > 30 µM

###

target: Alpha-1B adrenergic receptor (Homo sapiens, UniProt P35368); assay: Selectivity interaction (Binding assay) EUB0000341aCl ADRA1B
Quantity Kind: pIC50
The value called pIC50 is obtained by taking minus log10 of the concentration in mol/L.

Value of measured pIC50 for the entry C[C@@H](c1cccc(C#N)c1)n1cc(Cl)cc(C(N)=O)c1=N : 5.92

###

target: Gamma-aminobutyric acid receptor subunit alpha-1 (Homo sapiens, UniProt P14867); test: Selectivity interaction (GPCR panel (PDSP screen)) EUB0000304b GABRA1
Sequence (P14867 whole entry): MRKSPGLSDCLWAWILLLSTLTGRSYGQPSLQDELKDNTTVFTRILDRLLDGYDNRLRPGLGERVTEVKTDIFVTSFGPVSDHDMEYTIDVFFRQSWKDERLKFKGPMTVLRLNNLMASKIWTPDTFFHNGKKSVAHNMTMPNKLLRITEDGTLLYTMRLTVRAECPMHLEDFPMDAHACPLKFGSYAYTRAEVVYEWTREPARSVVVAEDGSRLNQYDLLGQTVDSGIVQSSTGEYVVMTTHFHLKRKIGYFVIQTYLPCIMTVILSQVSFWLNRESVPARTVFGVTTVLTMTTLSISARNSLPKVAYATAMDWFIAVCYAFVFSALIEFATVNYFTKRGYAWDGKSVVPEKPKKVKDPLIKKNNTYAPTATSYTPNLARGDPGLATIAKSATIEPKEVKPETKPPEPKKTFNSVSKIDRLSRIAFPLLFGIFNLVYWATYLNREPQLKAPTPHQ
Quantity Kind: pKi
The value called pKi is obtained by taking minus log10 of the concentration in mol/L.

Value of measured pKi for the entry C[C@H](c1ccc(F)cc1)N(Cc1cccc(C(=O)O)c1)C(=O)c1cnc2ccccc2c1 : 5.99

###

target: Mitogen-activated protein kinase kinase kinase 5 (Homo sapiens, UniProt Q99683); experiment: Selectivity interaction (Kinase panel (enzymatic assay)) EUB0000153b MAP3K5
Quantity Kind: IC50

Value of measured IC50 for the entry CNc1nc(-c2ccc3c(N)n[nH]c3c2)cc(N2C[C@@H](C(=O)NC3CCCCC3)CC[C@H]2C)n1 : > 10 µM
